Protein target, amino acids: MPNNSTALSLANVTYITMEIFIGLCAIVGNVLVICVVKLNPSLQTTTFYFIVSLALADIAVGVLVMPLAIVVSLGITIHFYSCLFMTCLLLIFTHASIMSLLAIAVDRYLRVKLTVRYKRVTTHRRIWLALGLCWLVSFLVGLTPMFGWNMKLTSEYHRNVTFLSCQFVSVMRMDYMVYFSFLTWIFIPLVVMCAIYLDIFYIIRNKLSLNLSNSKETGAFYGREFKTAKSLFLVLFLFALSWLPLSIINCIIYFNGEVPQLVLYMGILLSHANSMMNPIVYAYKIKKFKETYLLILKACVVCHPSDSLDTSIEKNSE
Recorded endpoint: Ki (nM)
Entry rule: numbers only, all in nM.

INPUT: Which Ki value belongs to CC[C@@H]1CN2C(=O)N(C)c3nc(-c4cc(Cl)cc(Cl)c4Cl)[nH]c3C2=N1 ?
OUTPUT: 9.54

* * *

Listing of recorded Ki by entry.
# Measured on: Adenosine receptor A3 (Homo sapiens, UniProt P0DMS8)
# Format: cell-based, CHO
Entry rule: numbers only, all in µM.

Example entries begin here.
Compound: N=c1ccc2c(-c3ccc(C(=O)NCCCCCCn4cc(CCCC(=O)Nc5nc6ccc(Cl)cc6c6nc(-c7ccco7)nn56)nn4)cc3C(=O)O)c3ccc(N)c(S(=O)(=O)O)c3oc-2c1S(=O)(=O)O
Ki [µM]: 0.00646
--
Compound: Cn1cc2c(nc(NCCCCNC(=S)Nc3ccc(C4c5ccc(O)cc5OC5=CC(=O)C=CC54)c(C(=O)O)c3)n3nc(-c4ccco4)nc23)n1 (stereo unspecified)
Ki [µM]: 0.724
--
Compound: Cn1cc2c(nc(NCCCCCNC(=S)Nc3ccc(C4c5ccc(O)cc5OC5=CC(=O)C=CC54)c(C(=O)O)c3)n3nc(-c4ccco4)nc23)n1 (stereo unspecified)
Ki [µM]: 5.62

INPUT: Which Ki value belongs to Cn1cc2c(nc(NCCCNC(=S)Nc3ccc(C4c5ccc(O)cc5OC5=CC(=O)C=CC54)c(C(=O)O)c3)n3nc(-c4ccco4)nc23)n1 (stereo unspecified) ?
OUTPUT: 2.4

INPUT: Which Ki value belongs to Cn1cc2c(nc(NNC(=S)Nc3ccc(C4c5ccc(O)cc5OC5=CC(=O)C=CC54)c(C(=O)O)c3)n3nc(-c4ccco4)nc23)n1 (stereo unspecified) ?
OUTPUT: 0.794

INPUT: Which Ki value belongs to Cn1cc2c(nc(NCCOCCOCCNC(=S)Nc3ccc(C4c5ccc(O)cc5OC5=CC(=O)C=CC54)c(C(=O)O)c3)n3nc(-c4ccco4)nc23)n1 (stereo unspecified) ?
OUTPUT: 9.55

* * *

# Measured on: Adenosine receptor A1 (Homo sapiens) (UniProt P30542)
# Sequence (whole entry): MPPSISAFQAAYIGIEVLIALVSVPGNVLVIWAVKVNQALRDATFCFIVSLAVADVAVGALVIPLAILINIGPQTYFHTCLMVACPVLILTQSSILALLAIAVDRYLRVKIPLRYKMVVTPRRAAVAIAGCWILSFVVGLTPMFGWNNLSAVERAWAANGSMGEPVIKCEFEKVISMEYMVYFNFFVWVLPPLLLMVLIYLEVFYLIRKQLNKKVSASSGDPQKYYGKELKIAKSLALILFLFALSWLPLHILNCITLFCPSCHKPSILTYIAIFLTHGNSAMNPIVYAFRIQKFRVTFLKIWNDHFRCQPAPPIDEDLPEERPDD
# Experiment notes: Displacement of [3H]R-PIA from human adenosine A1 receptor expressed in CHO cells at 10 uM after 60 mins by […] analysis relative to control
# Format: cell-based
Recorded endpoint: inhibition (%)
Entry rule: numbers only, all in %.

Compound: Cn1cc2c(nc(NCCCNC(=S)Nc3ccc(C4c5ccc(O)cc5OC5=CC(=O)C=CC54)c(C(=O)O)c3)n3nc(-c4ccco4)nc23)n1 (centres undefined)
Measure unit: %
Measurement: 5
--
Compound: Cn1cc2c(nc(NCCCCNC(=S)Nc3ccc(C4c5ccc(O)cc5OC5=CC(=O)C=CC54)c(C(=O)O)c3)n3nc(-c4ccco4)nc23)n1 (centres undefined)
Measure unit: %
Measurement: 7
--
Compound: Cn1cc2c(nc(NCCOCCOCCNC(=S)Nc3ccc(C4c5ccc(O)cc5OC5=CC(=O)C=CC54)c(C(=O)O)c3)n3nc(-c4ccco4)nc23)n1 (centres undefined)
Measure unit: %
Measurement: 0

Now for another entry.
INPUT: Which inhibition value belongs to Cn1cc2c(nc(NCCCCCNC(=S)Nc3ccc(C4c5ccc(O)cc5OC5=CC(=O)C=CC54)c(C(=O)O)c3)n3nc(-c4ccco4)nc23)n1 (centres undefined) ?
OUTPUT: 9
